condition-notes: in acetone, 318.15 K
parameter: solubility (mole fraction)
Give bare numbers.

Req: Find the recorded solubility (mole fraction) belonging to `CC(C)(C)OC(=O)N[C@@H](CC(N)=O)C(=O)O` and report it.
Resp: 0.00253

----------
condition-notes: in methanol, 318.15 K
parameter: solubility (mole fraction)

Req: Would you mind telling me what solubility (mole fraction) value was observed for `CC(C)(C)OC(=O)N[C@@H](CC(N)=O)C(=O)O` ?
Resp: 0.0172

----------
condition-notes: in n-butanol, 293.15 K
parameter: solubility (mole fraction)
Answers are plain numbers.

Req: Which solubility (mole fraction) is listed for `CC(C)(C)OC(=O)N[C@@H](CC(N)=O)C(=O)O` ?
Resp: 0.00113

These entries and their values trace back to BigSolDB 2.1.
